Test system: Mus musculus
EXPERIMENTAL PROTOCOL: Antipsychotic activity in Swiss Albino mouse assessed as spontaneous locomotor score at 1 mg/kg, ip measured for 10 mins by actophotometer
Assay type: functional
CONDITION: route intraperitoneal
Overview of reported Activity across a group of compounds:
Kindly answer with a numeric value in score, unit omitted.

The following compounds have reported results that may help.
[[record]]
molecular_string = "CCOc1nc2ccccc2nc1C(=O)N1CCN(c2ccccc2OC)CC1"
reported_measurement = 360

[[record]]
molecular_string = "CCOc1nc2ccccc2nc1C(=O)N1CCN(c2ccc(OC)cc2)CC1"
reported_measurement = 356

[[record]]
molecular_string = "CCOc1nc2ccccc2nc1C(=O)NCCN(CC)CC"
reported_measurement = 362


Exercise: Entry CCOc1nc2ccccc2nc1C(=O)Nc1cccnc1 : reported Activity = ?
Solution: 365

Exercise: Entry CCOc1nc2ccccc2nc1C(=O)N1CCN(c2ccc(Cl)cc2)CC1 : reported Activity = ?
Solution: 364

====

TESTED ON: 5-hydroxytryptamine receptor 3A (Cavia porcellus)
Sequence (O70212 whole entry): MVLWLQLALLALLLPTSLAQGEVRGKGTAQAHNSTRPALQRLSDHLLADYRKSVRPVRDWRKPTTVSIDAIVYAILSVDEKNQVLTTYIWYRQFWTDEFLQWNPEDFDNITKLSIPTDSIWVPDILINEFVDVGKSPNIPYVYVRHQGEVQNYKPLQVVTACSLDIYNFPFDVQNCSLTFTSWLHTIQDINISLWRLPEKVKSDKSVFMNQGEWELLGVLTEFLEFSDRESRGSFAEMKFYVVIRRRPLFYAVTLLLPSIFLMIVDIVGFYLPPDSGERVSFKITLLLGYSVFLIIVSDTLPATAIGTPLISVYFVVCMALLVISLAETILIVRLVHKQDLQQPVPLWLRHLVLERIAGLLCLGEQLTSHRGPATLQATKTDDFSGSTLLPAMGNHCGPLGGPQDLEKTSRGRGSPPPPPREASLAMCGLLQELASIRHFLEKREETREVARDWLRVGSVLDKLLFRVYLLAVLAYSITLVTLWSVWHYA
EXPERIMENTAL PROTOCOL: Antagonist activity at 5-HT3 receptor in guinea pig ileum muscle
Type: functional, tissue-based
CONDITION: read-out: pA2 (converted)
Overview of reported log10 of Kb across a group of compounds:
log10 Kb, nM

[[record]]
molecular_string = "C=CCN1CCN(C(=O)c2nc3ccccc3nc2OCC)CC1"
tested_on = "5-hydroxytryptamine receptor 3A (Cavia porcellus)"
reported_measurement = 2.20


Exercise: Entry CCOc1nc2ccccc2nc1C(=O)NCCN(CC)CC : reported log10 of Kb = ?
Solution: 4.30

Exercise: Entry CCOc1nc2ccccc2nc1C(=O)N1CCN(c2ccccc2)CC1 : reported log10 of Kb = ?
Solution: 4.00

Exercise: Entry CCOc1nc2ccccc2nc1C(=O)N1CCN(c2cccc(C(F)(F)F)c2)CC1 : reported log10 of Kb = ?
Solution: 3.90

Exercise: Entry CCOc1nc2ccccc2nc1C(=O)N1CCN(c2ccccc2OC)CC1 : reported log10 of Kb = ?
Solution: 2.00

Exercise: Entry CCOc1nc2ccccc2nc1C(=O)N1CCN(c2cccc(Cl)c2)CC1 : reported log10 of Kb = ?
Solution: 2.40

Exercise: Entry CCOc1nc2ccccc2nc1C(=O)N1CCN(Cc2ccccc2)CC1 : reported log10 of Kb = ?
Solution: 4.40

Exercise: Entry CCOc1nc2ccccc2nc1C(=O)Nc1cccnc1 : reported log10 of Kb = ?
Solution: 4.20

Exercise: Entry CCOc1nc2ccccc2nc1C(=O)N1CCN(c2ccc(Cl)cc2)CC1 : reported log10 of Kb = ?
Solution: 3.00

Exercise: Entry CCOc1nc2ccccc2nc1C(=O)N1CCN(c2ccc(OC)cc2)CC1 : reported log10 of Kb = ?
Solution: 2.20

Exercise: Entry CCOc1nc2ccccc2nc1C(=O)NCCN(C)C : reported log10 of Kb = ?
Solution: 2.10

====

TESTED ON: 5-hydroxytryptamine receptor 3A (Cavia porcellus)
EXPERIMENTAL PROTOCOL: Antagonist activity at 5-HT3 receptor in guinea pig ileum muscle
Type: functional, tissue-based
CONDITION: read-out: pA2 (converted)
READOUT KIND: Kb (nM)
Kindly answer with a numeric value in nM, unit omitted.

[[record]]
molecular_string = "CCOc1nc2ccccc2nc1C(=O)NCCc1c[nH]c2ccccc12"
unit_symbol = "nM"
reported_measurement = 63.1

[[record]]
molecular_string = "CCOc1nc2ccccc2nc1C(=O)Nc1ccc(N(CC)CC)cc1"
unit_symbol = "nM"
reported_measurement = 10000

[[record]]
molecular_string = "CCOc1nc2ccccc2nc1C(=O)N1CCN(C)CC1"
unit_symbol = "nM"
reported_measurement = 20


Exercise: Entry CCOc1nc2ccccc2nc1C(=O)N1CCN(CC)CC1 : reported Kb = ?
Solution: 31.6

====

Tested on: Mus musculus
EXPERIMENTAL PROTOCOL: Antidepressant activity in Swiss Albino mouse assessed as immobility time at 0.5 mg/kg, ip by forced swimming test (reference value: 165.6 +/- 03.2 sec)
Type: functional
CONDITION: route intraperitoneal
Overview of reported Time across a group of compounds:
Kindly answer with a numeric value in s, unit omitted.

The following compounds have reported results that may help.
[[record]]
compound = "CCOc1nc2ccccc2nc1C(=O)NCCc1c[nH]c2ccccc12"
reported_measurement = 150.3

[[record]]
compound = "CCOc1nc2ccccc2nc1C(=O)N1CCN(c2ccc(OC)cc2)CC1"
reported_measurement = 159

[[record]]
compound = "CCOc1nc2ccccc2nc1C(=O)N1CCN(CC)CC1"
reported_measurement = 159.3

[[record]]
compound = "C=CCN1CCN(C(=O)c2nc3ccccc3nc2OCC)CC1"
reported_measurement = 152


Exercise: Entry CCOc1nc2ccccc2nc1C(=O)NCCN(C)C : reported Time = ?
Solution: 133.6

Exercise: Entry Cc1nccn1CC1CCc2c(c3ccccc3n2C)C1=O (centres undefined) [ONDANSETRON] : reported Time = ?
Solution: 130.2

Exercise: Entry CCOc1nc2ccccc2nc1C(=O)N1CCN(c2cccc(Cl)c2)CC1 : reported Time = ?
Solution: 83.6

Exercise: Entry CCOc1nc2ccccc2nc1C(=O)N1CCN(C)CC1 : reported Time = ?
Solution: 125

Exercise: Entry CCOc1nc2ccccc2nc1C(=O)N1CCN(c2ccccc2OC)CC1 : reported Time = ?
Solution: 115.3
